test: Antioxidant activity against ferrous ion-induced lipid peroxidation in liver microsomes assessed as inhibition rate at 100 uM by TBA method in presence of cysteine; format: functional; parameters: scale not given: the % may be the effect or the level left; settings: Microsome
// reported Activity per item
Please state the figure in %; there is no need to write the unit.

C[C@@H]1O[C@@H](OC[C@H]2O[C@@H](Oc3cc(O)cc(/C=C/c4ccc(O)cc4)c3)[C@H](O[C@@H]3O[C@@H](C)[C@H](O)[C@@H](O)[C@H]3O)[C@@H](O)[C@@H]2O)[C@H](O)[C@H](O)[C@H]1O = 39
C[C@@H]1O[C@@H](OC[C@H]2O[C@@H](Oc3cc(O)cc(/C=C\c4ccc(O)cc4)c3)[C@H](O[C@@H]3O[C@@H](C)[C@H](O)[C@@H](O)[C@H]3O)[C@@H](O)[C@@H]2O)[C@H](O)[C@H](O)[C@H]1O = 25
C[C@@H]1O[C@@H](O[C@H]2[C@H](Oc3cc(O)cc(/C=C/c4ccc(O)cc4)c3)OC[C@@H](O)[C@@H]2O)[C@H](O)[C@H](O)[C@H]1O = 67
C[C@@H]1O[C@@H](OC[C@H]2O[C@@H](Oc3cc(O)cc(/C=C/c4ccc(O)cc4)c3)[C@H](O)[C@@H](O)[C@@H]2O)[C@H](O)[C@H](O)[C@H]1O = 31

As a next step, examine the compound that follows.
# Activity (compound: Oc1ccc(/C=C/c2cc(O)cc(O[C@@H]3O[C@H](CO[C@@H]4OC[C@@H](O)[C@H](O)[C@H]4O)[C@@H](O)[C@H](O)[C@H]3O)c2)cc1 ) is 21

###

experiment: Antioxidant activity against ferrous ion-induced lipid peroxidation in liver microsomes assessed as inhibition rate at 100 uM by TBA method in presence of cysteine; type: functional; parameters: scale not given: the % may be the effect or the level left; details: Microsome
endpointName: Activity (%)
Use % as the unit, but write only the number.

Worked cases, Activity given:
COc1ccc(CCN(C)CCCC(C#N)(c2ccc(OC)c(OC)c2)C(C)C)cc1OC (stereo unspecified) = 81
OC[C@H]1O[C@@H](O[C@H]2[C@H](Oc3cc(O)cc(/C=C/c4ccc(O)cc4)c3)OC[C@@H](O)[C@@H]2O)[C@H](O)[C@@H](O)[C@@H]1O = 29
C[C@@H]1O[C@@H](O[C@H]2[C@H](Oc3cc(O)cc(/C=C\c4ccc(O)cc4)c3)O[C@H](CO)[C@@H](O)[C@@H]2O)[C@H](O)[C@H](O)[C@H]1O = 10

Data point: OC[C@H]1O[C@@H](Oc2cc(O)cc(/C=C/c3ccc(O)cc3)c2)[C@H](O)[C@@H](O)[C@@H]1O ; Activity = 100

The value of Activity measured for the compound C[C@@H]1O[C@@H](OC[C@H]2O[C@@H](Oc3cc(O)cc(/C=C\c4ccc(O)cc4)c3)[C@H](O)[C@@H](O)[C@@H]2O)[C@H](O)[C@H](O)[C@H]1O turned out to be 15

Field Activity (entry C[C@@H]1O[C@@H](O[C@H]2[C@H](Oc3cc(O)cc(/C=C/c4ccc(O)cc4)c3)O[C@H](CO)[C@@H](O)[C@@H]2O)[C@H](O)[C@H](O)[C@H]1O ) reads 39
